# Tested on: PANC-08-13 (Pancreatic Carcinoma)
# assay_explanation: combination Emax (second highest fraction inhibited in the dose matrix, 72 h); higher = more inhibition; extreme values may be limits of the assay
Respond with met for combination Emax values of 0.4 and above, not met for values below.

Example entries and their recorded answers appear below.
- COc1cccc(OCCCN)c1-c1cc(Nc2cnc(C#N)cn2)n[nH]1 [Prexasertib] + C[C@@H]1COCCN1C2=NC(=NC(=C2)C3(CC3)[S@](=N)(=O)C)C4=C5C=CNC5=NC=C4 [AZD6738] (first compound max 1 µM, 7x7, partner max 10 µM): met
- COc1cc2c(cc1OCCCCCOc1cc3c(cc1OC)C(=O)N1C=C(C)C[C@H]1C=N3)N=C[C@@H]1CC(C)=CN1C2=O [SG3199] + O=C(c1cc(Cc2n[nH]c(=O)c3ccccc23)ccc1F)N1CCN(C(=O)C2CC2)CC1 [Olaparib] (first compound max 0.001 µM, 7x7, partner max 10 µM): not met
- CCN(CCO)CCCOc1ccc2c(Nc3cc(CC(=O)Nc4cccc(F)c4)[nH]n3)ncnc2c1 [AZD2811] + C[C@@H]1COCCN1C2=NC(=NC(=C2)C3(CC3)[S@](=N)(=O)C)C4=C5C=CNC5=NC=C4 [AZD6738] (first compound max 1 µM, 7x7, partner max 10 µM): not met
- CC1(C)CCC(CN2CCN(c3ccc(C(=O)NS(=O)(=O)c4ccc(NCC5CCOCC5)c([N+](=O)[O-])c4)c(Oc4cnc5[nH]ccc5c4)c3)CC2)=C(c2ccc(Cl)cc2)C1 [Venetoclax] + Cc1cc2ncnn2cc1Nc1ncc2c(n1)n(C1CCOCC1)c(=O)n2C [AZD7648] (first compound max 1 µM, 7x7, partner max 10 µM): not met

Let's switch to this compound now.
input: Is combination Emax at least 0.4? Consider CCc1c2c(nc3ccc(O)cc13)-c1cc3c(c(=O)n1C2)COC(=O)[C@]3(O)CC [SN-38] + O=C(c1cc(Cc2n[nH]c(=O)c3ccccc23)ccc1F)N1CCN(C(=O)C2CC2)CC1 [Olaparib] (first compound max 0.3 µM, 7x7, partner max 10 µM)
output: not met

====

// reported combination Emax per item
# Tested on: KARPAS-45 (T-Lymphoblastic Leukemia)
# assay_explanation: combination Emax (second highest fraction inhibited in the dose matrix, 72 h); higher = more inhibition; extreme values may be limits of the assay
Kindly provide the number alone.

• CC1(C)CCC(CN2CCN(c3ccc(C(=O)NS(=O)(=O)c4ccc(NCC5CCOCC5)c([N+](=O)[O-])c4)c(Oc4cnc5[nH]ccc5c4)c3)CC2)=C(c2ccc(Cl)cc2)C1 [Venetoclax] + CCN(CCO)CCCOc1ccc2c(Nc3cc(CC(=O)Nc4cccc(F)c4)[nH]n3)ncnc2c1 [AZD2811] (first compound max 1 µM, 7x7, partner max 1 µM) = 0.96
• CC1(C)CCC(CN2CCN(c3ccc(C(=O)NS(=O)(=O)c4ccc(NCC5CCOCC5)c([N+](=O)[O-])c4)c(Oc4cnc5[nH]ccc5c4)c3)CC2)=C(c2ccc(Cl)cc2)C1 [Venetoclax] + C[C@@H]1COCCN1C2=NC(=NC(=C2)C3(CC3)[S@](=N)(=O)C)C4=C5C=CNC5=NC=C4 [AZD6738] (first compound max 1 µM, 7x7, partner max 10 µM) = 0.941
• CN(C)CCCOc1ccc(-c2ccc3ncc4c(c3c2)n(C2CCOCC2)c(=O)n4C)cn1 [AZD0156] + CCN(CCO)CCCOc1ccc2c(Nc3cc(CC(=O)Nc4cccc(F)c4)[nH]n3)ncnc2c1 [AZD2811] (first compound max 1 µM, 7x7, partner max 1 µM) = 0.919
• NC1(C(=O)N[C@@H](CCO)c2ccc(Cl)cc2)CCN(c2ncnc3[nH]ccc23)CC1 [Capivasertib] + C[C@@H]1COCCN1C2=NC(=NC(=C2)C3(CC3)[S@](=N)(=O)C)C4=C5C=CNC5=NC=C4 [AZD6738] (first compound max 10 µM, 7x7, partner max 10 µM) = 0.854
• COc1nnc2ccc(N3CCC(c4ccc(OCCN5CCN(C)C(=O)[C@H]5C)cc4)CC3)nn12 [AZD5153] + C[C@@H]1COCCN1C2=NC(=NC(=C2)C3(CC3)[S@](=N)(=O)C)C4=C5C=CNC5=NC=C4 [AZD6738] (first compound max 1 µM, 7x7, partner max 10 µM) = 1

input: Fill in: combination Emax of NC1(C(=O)N[C@@H](CCO)c2ccc(Cl)cc2)CCN(c2ncnc3[nH]ccc23)CC1 [Capivasertib] + CC(=O)c1c(C)c2cnc(Nc3ccc(N4CCNCC4)cn3)nc2n(C2CCCC2)c1=O [Palbociclib] (first compound max 10 µM, 7x7, partner max 10 µM) is ___
output: 0.982

input: Fill in: combination Emax of Cc1cc2ncnn2cc1Nc1ncc2c(n1)n(C1CCOCC1)c(=O)n2C [AZD7648] + CCN(CCO)CCCOc1ccc2c(Nc3cc(CC(=O)Nc4cccc(F)c4)[nH]n3)ncnc2c1 [AZD2811] (first compound max 10 µM, 7x7, partner max 1 µM) is ___
output: 0.931

input: Fill in: combination Emax of COc1cc2ncnc(Nc3ccc(F)c(Cl)c3)c2cc1OCCCN1CCOCC1 [Gefitinib] + CC(C)n1c(=O)n(C)c2cnc3cc(F)c(-c4ccc(OCCCN5CCCCC5)nc4)cc3c21 [AZD1390] (first compound max 10 µM, 7x7, partner max 0.3 µM) is ___
output: 0.644

input: Fill in: combination Emax of Cc1cc2ncnn2cc1Nc1ncc2c(n1)n(C1CCOCC1)c(=O)n2C [AZD7648] + O=C(c1cc(Cc2n[nH]c(=O)c3ccccc23)ccc1F)N1CCN(C(=O)C2CC2)CC1 [Olaparib] (first compound max 10 µM, 7x7, partner max 10 µM) is ___
output: 0.177

input: Fill in: combination Emax of CC(=O)c1c(C)c2cnc(Nc3ccc(N4CCNCC4)cn3)nc2n(C2CCCC2)c1=O [Palbociclib] + Cc1c2c(nn1C)CSCc1cc(n(C)n1)CSc1cc(c3ccccc3c1)OCCCc1c(C(=O)O)n(C)c3c-2c(Cl)ccc13 [AZD5991] (first compound max 10 µM, 7x7, partner max 1 µM) is ___
output: 0.99

input: Fill in: combination Emax of COc1cccc(OCCCN)c1-c1cc(Nc2cnc(C#N)cn2)n[nH]1 [Prexasertib] + Cc1cc2ncnn2cc1Nc1ncc2c(n1)n(C1CCOCC1)c(=O)n2C [AZD7648] (first compound max 1 µM, 7x7, partner max 10 µM) is ___
output: 0.981

input: Fill in: combination Emax of CN(CCO)CC[C@H](CSc1ccccc1)Nc1ccc(S(=O)(=O)NC(=O)c2ccc(N3CCC([C@@H](O)c4ccccc4-c4ccc(Cl)cc4)CC3)cc2)cc1S(=O)(=O)C(F)(F)F [AZD4320] + C[C@@H](Nc1cc(F)cc(F)c1)c1cc(C(=O)N(C)C)cc2c(=O)cc(N3CCOCC3)oc12 [AZD8186] (first compound max 1 µM, 7x7, partner max 3 µM) is ___
output: 1

input: Fill in: combination Emax of Cc1c2c(nn1C)CSCc1cc(n(C)n1)CSc1cc(c3ccccc3c1)OCCCc1c(C(=O)O)n(C)c3c-2c(Cl)ccc13 [AZD5991] + C=CCn1c(=O)c2cnc(Nc3ccc(N4CCN(C)CC4)cc3)nc2n1-c1cccc(C(C)(C)O)n1 [AZD1775] (first compound max 1 µM, partner max 1 µM) is ___
output: 1
